- tgt: CBP (Homo sapiens (Human))
- Sequence (Q92793 1085-1192): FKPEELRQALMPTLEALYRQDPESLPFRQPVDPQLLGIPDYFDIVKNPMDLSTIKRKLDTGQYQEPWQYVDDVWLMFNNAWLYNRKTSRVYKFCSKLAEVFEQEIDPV
- protocolText: HTRF biochemical assay for CBP activity (TR-FRET, bromodomain)
- Format: binding
- experimentalSetup: geometric mean, 10-point 3-fold dilution 33 μM to 1.7 nM, read-out: BROMO IC50 TRF TB CBP (μM gmean)
Below is a list of entries, each paired with its recorded IC50 value.

Worked cases, answers included:
> print(dat)
                                   molecule  measurename            result
1  COC(=O)N1CCc2ccc3c(nc(C4CCCCC4)n3C[C@@H](CC(=O)O)c3ccccc3C)c2C1 [Compound 98]         IC50  0.001 to 0.01 µM
2  COC(=O)N1CCc2ccc3c(nc([C@H]4CC[C@H](C(=O)O)CC4)n3[C@H](C)Cc3cccc(C)c3)c2C1 [Compound 334]         IC50       0.1 to 1 µM
3  COC(=O)N1CCc2ccc3c(nc([C@H]4CC[C@H](C(=O)O)CC4)n3[C@H](C)Cn3ncc4ccccc43)c2C1 [Compound 311]         IC50       0.1 to 1 µM

Query: Which IC50 is listed for COC(=O)N1CCc2ccc3c(nc(N4CCC(C)(C(=O)O)CC4)n3[C@@H](C)Cc3ccccc3)c2C1 [Compound 75] ?
Response: 0.001 to 0.01 µM

Query: Which IC50 is listed for COC(=O)N1CCc2ccc3c(nc([C@H]4CC[C@H](C(=O)O)CC4)n3CCc3ccc(OC(F)F)cc3)c2C1 [Compound 155] ?
Response: 0.001 to 0.01 µM

Query: Which IC50 is listed for COC(=O)N1CCc2ccc3c(nc(-c4ccc(CC(=O)O)cc4)n3[C@@H](C)Cc3ccccc3)c2C1 [Compound 78] ?
Response: 0.001 to 0.01 µM

Query: Which IC50 is listed for COC(=O)N1CCc2ccc3c(nc(C4CCCCC4)n3[C@H](CC(=O)O)c3ccccc3)c2C1 [Compound 180] ?
Response: 0.01 to 0.1 µM
